Below, each entry is listed with its recorded cytotoxicity at 70.5 h.
- ASSAY NAME: Human HepG2 cell viability assay in 384 well format
- Assay type: toxicity, cell-based
- Design: dose 125 nL, time 70.5 hour; concentration not given beside the values
- REPORTED CONDITIONS: HepG2 cells, read-out: Inhibition

SMILES REPRESENTATION	cytotoxicity at 70.5 h, %
O=C(CN1CCc2ccccc21)Nc1ccc(OC(F)F)cc1	9.55
CCN1CCN(C(=O)NCc2cccc(-c3cnn(C)c3)c2)CC1	-2.59
CN(C)[C@H]1CCCCN(C(=O)c2cccc(N3CCS(=O)(=O)CC3)c2)C1	-8.16
OCc1ccc(CNc2ccccc2CN2CCC(O)CC2)o1	-4.84
Cc1c(C(=O)NCCC(=O)N2CCOCC2)oc2c(C)cccc12	-12.9
